# System: PPARg DBDmut:RXRa IVT, anti-PPARg (DBD mutation: PPARg1 K132A/R137A, NR concentration 270 nM, RXRa partner concentration 90 nM)
# ASSAY PROCEDURE: PBM binding z-score (relative to random genomic background probes); higher = stronger binding; sequences stand for … in GC…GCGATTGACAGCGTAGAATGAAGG
Each entry belongs to exactly one class, chosen by where its PBM binding z-score falls: bin 0 (below 0.2), bin 1 (0.2 to below 0.8), bin 2 (0.8 or more)

RESIDUES | ANSWER LABEL
CCTAGCAGGCCAATCTGGGTCACTCAGGGCTTGA | bin 2
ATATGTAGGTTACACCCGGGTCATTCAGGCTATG | bin 2
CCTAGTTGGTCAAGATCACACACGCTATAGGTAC | bin 1
ATCTCTAGGTAAACGTTCAGTGAATCCCGAGGAT | bin 1
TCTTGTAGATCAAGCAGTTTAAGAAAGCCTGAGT | bin 2

**Q:** Which class is correct for the following sequence? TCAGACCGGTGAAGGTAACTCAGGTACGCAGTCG
**A:** bin 0

**Q:** Which class is correct for the following sequence? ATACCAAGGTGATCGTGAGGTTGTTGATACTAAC
**A:** bin 2
